Quick reference: % of peptide at 4 hours after incubation at 37EC, Urine of the listed items.
- assay remarks: In vitro urine stability assay (HPLC) of In-111 labeled peptide
- Assay type: in vitro ADME
- protocol conditions: rat urine, 37EC, 4 hours
Where a SMILES comes first, the peptide text is derived from it. [ ]: non-standard residue; d: D form. The star is where a group is joined. ξ: configuration not given here. Abu(1-amidino-4-piperidyl) = N=C(N)N1CCC(CC[C@H](N)C(=O)O)CC1; DTPA = O=C(O)CN(CCN(CC(=O)O)CC(=O)O)CCN(CC(=O)O)CC(=O)*; ξGly(4-Pip(1-amidino)) = N=C(N)N1CCC(C(N)C(=O)O)CC1; ξGly(piperidin-4-yl) = NC(C(=O)O)C1CCNCC1; Tle = CC(C)(C)[C@H](N)C(=O)O
Write the numeric value and follow it with the unit.

[
  {
    "molecule": "CC[C@H](C)[C@H](NC(=O)[C@H](Cc1ccc(O)cc1)NC(=O)[C@@H]1CCCN1C(=O)[C@H](CCCNC(=N)N)NC(=O)C(CCc1ccnc(N)n1)NC(=O)[C@@H]1CCCN1C(=O)[C@@H](CCCCN)NC(=O)CN(CCN(CCN(CC(=O)O)CC(=O)O)CC(=O)O)CC(=O)O)C(=O)N[C@@H](CC(C)C)C(=O)O (single isomer, unassigned)",
    "measured": "6.0%"
  }
]

What measured % of peptide at 4 hours after incubation at 37EC, Urine goes with CC(C)C[C@H](NC(=O)[C@@H](NC(=O)[C@H](Cc1ccc(O)cc1)NC(=O)[C@@H]1CCCN1C(=O)[C@H](CCCNC(=N)N)NC(=O)C(NC(=O)[C@@H]1CCCN1C(=O)C(NC(=O)CN(CCN(CCN(CC(=O)O)CC(=O)O)CC(=O)O)CC(=O)O)C1CCNCC1)C1CCN(C(=N)N)CC1)C(C)(C)C)C(=O)O (stereo partly drawn) [Compound XI] ({DTPA}-[ξGly(piperidin-4-yl)]P[ξGly(4-Pip(1-amidino))]RPY[Tle]L-OH) ?
93.6%

Lookup CC(C)C[C@H](NC(=O)[C@@H](NC(=O)[C@H](Cc1ccc(O)cc1)NC(=O)[C@@H]1CCCN1C(=O)[C@H](CCCNC(=N)N)NC(=O)[C@H](CCC1CCN(C(=N)N)CC1)NC(=O)[C@@H]1CCCN1C(=O)[C@@H](CCCCN)NC(=O)CN(CCN(CCN(CC(=O)O)CC(=O)O)CC(=O)O)CC(=O)O)C(C)(C)C)C(=O)O ({DTPA}-[dK]P[Abu(1-amidino-4-piperidyl)]RPY[Tle]L-OH)
71.3%
